STUDY_TARGET: Ba/F3 cells EML4-ALK wt (variant 1) (Homo sapiens, UniProt Q9UM73)
Construct: echinoderm microtubule-associated protein-like 4 (EML4) gene and the ALK tyrosine kinase domain; the other entry of the earlier key: EML4 (Q9HC35, Echinoderm microtubule-associated protein-like 4)
Sequence (Q9UM73 with tags, fused parts or gaps): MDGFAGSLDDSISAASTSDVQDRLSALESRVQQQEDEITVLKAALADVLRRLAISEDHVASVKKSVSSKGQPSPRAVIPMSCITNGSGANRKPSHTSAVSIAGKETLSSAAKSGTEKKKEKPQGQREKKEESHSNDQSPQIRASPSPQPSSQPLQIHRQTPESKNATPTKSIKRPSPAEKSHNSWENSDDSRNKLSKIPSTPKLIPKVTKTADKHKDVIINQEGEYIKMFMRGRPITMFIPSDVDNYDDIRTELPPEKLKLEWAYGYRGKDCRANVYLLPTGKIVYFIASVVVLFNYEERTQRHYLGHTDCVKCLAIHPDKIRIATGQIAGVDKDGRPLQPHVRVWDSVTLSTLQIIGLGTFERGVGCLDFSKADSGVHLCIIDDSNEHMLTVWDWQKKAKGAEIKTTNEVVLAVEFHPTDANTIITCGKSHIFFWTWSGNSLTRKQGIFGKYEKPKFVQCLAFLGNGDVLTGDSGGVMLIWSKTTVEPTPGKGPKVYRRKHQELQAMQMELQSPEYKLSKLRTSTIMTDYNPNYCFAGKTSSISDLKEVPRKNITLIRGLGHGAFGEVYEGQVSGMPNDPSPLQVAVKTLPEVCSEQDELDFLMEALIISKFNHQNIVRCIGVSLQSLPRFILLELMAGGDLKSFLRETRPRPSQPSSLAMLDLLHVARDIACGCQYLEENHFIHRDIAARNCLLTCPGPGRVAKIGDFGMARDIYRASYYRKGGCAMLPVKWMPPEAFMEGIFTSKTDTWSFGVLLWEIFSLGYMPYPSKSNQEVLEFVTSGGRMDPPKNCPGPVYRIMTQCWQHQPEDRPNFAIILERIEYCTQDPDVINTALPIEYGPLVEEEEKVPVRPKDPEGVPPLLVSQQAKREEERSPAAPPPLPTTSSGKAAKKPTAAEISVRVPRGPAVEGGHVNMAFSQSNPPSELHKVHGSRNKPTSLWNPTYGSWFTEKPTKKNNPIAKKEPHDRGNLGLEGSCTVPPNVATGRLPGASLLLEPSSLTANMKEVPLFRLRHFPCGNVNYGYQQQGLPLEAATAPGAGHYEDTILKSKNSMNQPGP
ASSAY_METHOD_TEXT: Ba/F3 cell proliferation assay, EML4-ALK wt (variant 1)
PARTICULARS: 72 hours, CellTiter-Glo
pIC50: −log10 of the molar value.
ATTRIBUTE_MEASURED: pIC50

[[record]]
compound = "C[C@H]1Oc2cc(cnc2N)-c2c(c(Cl)nn2CC2CC2)Cc2nn(C)cc2-c2ccc(F)cc21 [Example 90]"
value = "7.30 to 10.00"

[[record]]
compound = "CCc1noc2c1-c1cnc(N)c(c1)O[C@H](C)c1cc(F)ccc1-c1nn(C)nc1C2 [Example 22]"
value = "7.30 to 10.00"

[[record]]
compound = "CCn1ncc2c1-c1cnc(N)c(c1)O[C@H](C)c1cc(F)ccc1-c1ncn(C)c1C2 [Example 6]"
value = "7.30 to 10.00"

[[record]]
compound = "C[C@H]1Oc2cc(cnc2N)-c2c(cnn2CC2CC2)Cn2ncnc2-c2ccc(F)cc21 [Example 70]"
value = "7.30 to 10.00"

[[record]]
compound = "Cc1nn(CC(C)C)c2c1Cn1ncnc1-c1ccc(F)cc1[C@@H](C)Oc1cc-2cnc1N [Example 79]"
value = "7.30 to 10.00"


IN: Entry under review: CCn1nc2c(n1)-c1ccc(F)cc1[C@@H](C)Oc1cc(cnc1N)-c1c(cnn1CC)C2 [Example 88] . Reported pIC50?
OUT: 7.30 to 10.00

IN: Moving on to CCn1nc(Cl)c2c1-c1cnc(N)c(c1)O[C@H](C)c1cc(F)ccc1-c1ncnn1C2 [Example 43]
OUT: 6.30 to 7.30
